Experiment: Inhibition of cathepsin L using Cbz-Phe-Arg-AMC as substrate measured every 30 secs for 2.5 hrs by fluorimetry
Observation Type: pIC50
Reminder that pIC50 means the negative base-10 logarithm of the concentration expressed in mol/L.

Problem: Any idea what its pIC50 is? The compound is CCOC(=O)C1OC1C(=O)N(CC(N)=O)NC(=O)[C@@H]1CCCN1C(C)=O (stereo partly drawn)
Solution: 3.43

Problem: Repeat with "CCOC(=O)/C=C/C(=O)N(CC(N)=O)NC(=O)[C@@H]1CCCN1C(=O)[C@H](CC)NC(C)=O"
Solution: 3.02

Problem: Repeat with C#CC[C@H](NC(C)=O)C(=O)N1CCC[C@H]1C(=O)NN(CC(N)=O)C(=O)C1OC1C(=O)OCC (stereo partly drawn)
Solution: 3.45

Problem: Repeat with CCOC(=O)C1OC1C(=O)N(CC(N)=O)NC(=O)[C@@H]1CCCN1C(=O)C1(NC(C)=O)CC1 (stereo partly drawn)
Solution: 3.97

Problem: Repeat with "C#CC[C@H](NC(C)=O)C(=O)N1CCC[C@H]1C(=O)NN(CC(N)=O)C(=O)/C=C/C(=O)OCC"
Solution: 3.07

Problem: Repeat with CCOC(=O)C1OC1C(=O)N(CC(N)=O)NC(=O)[C@@H]1CCCN1C(=O)[C@H](CC)NC(C)=O (stereo partly drawn)
Solution: 3.05
